The origin of these recorded values is PubChem BioAssay (NCI).

- Test system: NCI-H23 lung
- assay notes: NCI tumour cell line growth inhibition, 48 h
In this section we review reported GI50 values for a set of compounds.

Use these answered entries as a reference point.
compound	endpoint	val
COc1cc2c(cc1OCCCN1CCN(C(=S)SCCC(C#N)(c3ccccc3)c3ccccc3)CC1)N=C[C@@H]1CCCN1C2=O	GI50	1.07 µM
CCN(CC)CC(O)c1cc(-c2ccc(Cl)cc2)nc2c(C)c(Cl)ccc12 (stereo not drawn)	GI50	1.78 µM
CC[C@@]1(O)C(=O)OCc2c1cc1n(c2=O)Cc2c-1nc1cc(F)c(C)c3c1c2[C@@H](NC(=O)CO)CC3	GI50	< 0.01 µM
Fc1ccc(Nc2nc3nonc3nc2Nc2ccc(I)cc2)cc1	GI50	0.265 µM
COc1cc(C)[nH]c(=O)c1CNC(=O)c1c(C)n([C@H](C)C2CCN(CC(F)(F)F)CC2)c2ccccc12	GI50	> 100 µM
CN(C)C1CN(C(=O)c2cc(-c3ccc4ncnc(N5CCc6cc(F)c(Cl)cc65)c4c3)cnc2N)C1	GI50	1.25 µM
CN(C)CCCCNc1ccc(NCCCCN(C)C)c2c1C(=O)c1c(O)ccc(O)c1C2=O	GI50	1.63 µM

*Q* Please give the measured GI50 for this compound: CO/C(=C1/NC(=O)C(Cc2ccc(O)c(Br)c2)N(C)C(=O)C(C)NC(=O)CCC/C=C(\C)CCC(C)OC1=O)c1ccccc1 (stereo not drawn)
*A* 0.106 µM
